- Test system: RIOK2
- TEST_CONTEXT: concentration: 1 μM, replicates: in singlicate; n = 1;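 note: KINOMEscan kinase panel screen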
Define the label as yes (1) when %Inh is strictly less than 1% and as no (0) in all remaining cases.

Example cases with answers are listed next.
COMPOUND | CLASS_ASSIGNMENT
CNCc1ccc2nc(NC(=O)c3ccc(C(C)(C)C)cc3)cn2c1 | no (0)
COC(=O)c1cccc(NC(=O)NC2CCN(c3ccnc(Nc4ccc(F)cc4)n3)C2)c1 (centres unmarked) [GSK1379725] | yes (1)
COc1ccc(Nc2nccc(-c3ccc(NC(=O)c4cc5cc(F)ccc5[nH]4)cc3)n2)cc1 [GSK1229496] | yes (1)
COC(=O)c1cccc(NC(=O)NC2CCN(c3ccnc(Nc4ccc(OC)cc4)n3)C2)c1 (centres unmarked) [GSK1379746] | yes (1)
CC(=O)c1c(C)c2cnc(Nc3ccn(C)n3)nc2n(C2CCCC2)c1=O | no (0)
O=C(Nc1n[nH]c2nc(-c3cccs3)c(Br)cc12)C1CC1 [SB-735297] | no (0)

Moving on to the next compound.
Please indicate whether the reported %Inh of CS(=O)(=O)CCNCc1nc(-c2ccc3ncnc(Nc4ccc5c(cnn5Cc5ccccc5)c4)c3c2)cs1.Cl.Cl [GW569716] is strictly below 1%.
yes (1)

====

Catalogue of %Inh values
- Tested on: TLK2
- TEST_CONTEXT: concentration: 1 μM, replicates: in singlicate; n = 1
Numbers only; they are read as %.

Worked set:
COMPOUND | STUDY_SYSTEM | RESULT_NUMBER
Cl.Cl.Cl.N#Cc1ccc(CCNc2nccc(-c3cccc(CN4CCNCC4)c3)n2)cc1 | TLK2 | 3
Cc1cccc2c(-c3ccncn3)c(-c3ccc(F)cc3)nn12 | TLK2 | 0
COc1ccc(CSc2nnc(-c3ccc4c(c3)CCO4)o2)cc1 | TLK2 | 0

The compound COc1ccc2cc(-c3nc(-c4ccccc4C(C)C)[nH]c3-c3ccncc3)ccc2c1 showed %Inh equal to 0

The compound CC(=O)c1cccc(NC(=O)NC2CCN(c3ccnc(Nc4ccc(F)cc4)n3)C2)c1 (stereo not shown) showed %Inh equal to 25

The compound CSc1ccc(-c2nc3n(c2-c2ccncc2)CCC3)cc1 showed %Inh equal to 0

The compound CC(=O)c1c(C)c2cnc(Nc3ccc(N4CCNCC4)cn3)nc2n(C2CCCC2)c1=O showed %Inh equal to 0

The compound O=c1cc(N2CCOCC2)nc2n(Cc3cccc(Cl)c3Cl)c3ccccc3n12 showed %Inh equal to 0

The compound Cc1ccc(NC(=O)Nc2ccccc2)cc1-c1ccc(C(=O)Nc2ccncc2)cc1 showed %Inh equal to 4

The compound Cc1c(Cn2c(C)c(C)n3c(=O)cc(N4CCOCC4)nc23)cccc1C(F)(F)F showed %Inh equal to 0

====

Catalogue of %Inh values
- System: LATS2
- TEST_CONTEXT: concentration: 1 μM, replicates: in singlicate; n = 1
Numbers only; they are read as %.

COMPOUND | UNIT | %Inh
Cn1cncc1-c1cc2c(Nc3ccc(OCc4ccccc4)cc3)ncnc2cn1 [GW281179] | % | 0
CC[C@@H]1CO[C@H](C(=O)Nc2ccccc2)CN1c1cc(-c2ccc3c(N)n[nH]c3c2)nc(NC)n1 [GSK2376236] | % | 0
Cc1c(Cn2c3ccccc3n3c(=O)cc(N4CCOCC4)nc23)cccc1C(F)(F)F [GSK2306394] | % | 0
Cc1ccc(NC(=O)c2ccc(Cl)cc2)cc1-c1ccc(C(=O)Nc2ccncc2)cc1 [GSK1398467] | % | 0
COc1nccc(-c2c(-c3ccc(F)cc3)ncn2CCCN2CCOCC2)n1 [SB-282852] | % | 27
CS(=O)(=O)Cc1ccc(Nc2nccc(-c3c(-c4cccc(NC(=O)C5CCCCC5)c4)nn4ncccc34)n2)cc1 [GSK350559] | % | 48
COC(=O)C(Cc1ccccc1)NC(=O)NC1CCN(c2ccnc(Nc3ccc(F)cc3)n2)C1 (stereo not drawn) [GSK1379714] | % | 15
O=C(Nc1n[nH]c2cc(-c3ccsc3)ccc12)C1CC1 [SB-732932] | % | 15

The compound CNC(=O)c1ccc(C)c(-n2c(C)cc(OCc3ccc(F)cc3F)c(Br)c2=O)c1 showed %Inh equal to 0

The compound O=c1cc(N2CCOCC2)nc2n(Cc3cccc(Cl)c3Cl)c3ccccc3n12 [GSK2299009] showed %Inh equal to 16

The compound O=C(Nc1n[nH]c2nc(-c3ccco3)c(Br)cc12)C1CCN(Cc2ccccc2)C1.O=C(O)[C@H](O)[C@@H](O)C(=O)O (stereo not drawn) [SB-742034] showed %Inh equal to 0

The compound CSc1ccc(-c2nc3n(c2-c2ccncc2)CCC3)cc1 [SKF-105561] showed %Inh equal to 13

The compound CC(C)c1ccc(O)cc1Nc1ccnc2ccc(C(F)(F)F)cc12 [GW482059] showed %Inh equal to 0

The compound Nc1nccc(-c2c(-c3ccc(F)cc3)ncn2C2CCN(Cc3ccccc3)CC2)n1 [SB-219980] showed %Inh equal to 0

The compound CCCCc1nn2ncccc2c1-c1ccnc(NC2CC2)n1 [GW684374] showed %Inh equal to 0

The compound CCn1c(-c2c(N)noc2C)nc2cnccc21 [SB-737856] showed %Inh equal to 0

The compound COc1ccc(CSc2nnc(-c3ccc4ncsc4c3)o2)cc1C(F)(F)F showed %Inh equal to 0

The compound NS(=O)(=O)c1cccc(N/C=C2\C(=O)Nc3ccc(S(=O)(=O)Cc4c(Cl)cccc4Cl)cc32)c1 [GSK398099] showed %Inh equal to 22

====

- System: CDC2L2
- TEST_CONTEXT: concentration: 1 μM, replicates: in singlicate; n = 1
Define the label as y when %Inh is strictly less than 8% and as n in all remaining cases.

COMPOUND | CLASS_ASSIGNMENT
O=C(Nc1n[nH]c2cc(-c3ccsc3)ccc12)C1CC1 | y
COc1ccc(-c2coc3ccc(-c4nnc(C)o4)cc23)cc1 | y
O=C(Nc1n[nH]c2nc(-c3ccco3)c(Br)cc12)C1CCN(Cc2ccccc2)C1.O=C(O)[C@H](O)[C@@H](O)C(=O)O (stereo not shown) | n

Please indicate whether the reported %Inh of Nc1cccc(-c2ccc3c(N)n[nH]c3c2)n1 is strictly below 8%.
n

Please indicate whether the reported %Inh of COc1ccc(Nc2nccc(N3CCC(NC(=O)c4cc5ccccc5s4)C3)n2)cc1 (stereo not shown) is strictly below 8%.
n

Please indicate whether the reported %Inh of O=C(Nc1n[nH]c2nc(-c3cccs3)c(Br)cc12)C1CCCC1 is strictly below 8%.
y

Please indicate whether the reported %Inh of Fc1ccc(-c2nn3cccc(F)c3c2-c2ccncc2)cc1 is strictly below 8%.
y

====

Catalogue of %Inh values
- System: EPHA8
- TEST_CONTEXT: concentration: 1 μM, replicates: in singlicate; n = 1
Numbers only; they are read as %.

Worked set:
MOLECULE | %Inh, %
CCn1c(-c2c(N)noc2C)nc2cnccc21 [SB-737856] | 33
Nc1ncnc2occ(-c3ccc4c(c3)CCN4C(=O)Cc3cc(F)ccc3F)c12 [GSK2645446] | 0

The molecule O=c1cc(N2CCOCC2)nc2n(Cc3ccccc3F)ccn12 [GSK2297428] showed %Inh equal to 9

The molecule Cc1c(Cn2c3ccccc3n3c(=O)cc(N4CCOCC4)nc23)cccc1C(F)(F)F [GSK2306394] showed %Inh equal to 13

The molecule Cc1ccc(NC(=O)Nc2ccc(Cl)c(C(F)(F)F)c2)cc1-c1ccc(C(=O)Nc2ccncc2)cc1 [GSK1398470] showed %Inh equal to 26

The molecule COc1ccc(Nc2nccc(-c3ccc(NC(=O)c4cc5cc(F)ccc5[nH]4)cc3)n2)cc1 [GSK1229496] showed %Inh equal to 10

The molecule COc1cccc(C2=C(Nc3cc(Cl)c(O)c(Cl)c3)C(=O)NC2=O)c1 [SB-390767] showed %Inh equal to 17

====

- Tested on: MARK3
- TEST_CONTEXT: concentration: 1 μM, replicates: in singlicate; n = 1
VALUE_TYPE: %Inh (%)
Numbers only; they are read as %.

COMPOUND | %Inh [%]
COc1ccc(Nc2nccc(-c3ccc(NC(=O)c4cc5cc(F)ccc5[nH]4)cc3)n2)cc1 | 0
COc1cccc(NC(=O)Nc2ccc(C)c(-c3ccc(C(=O)Nc4ccncc4)cc3)c2)c1 | 0
Nc1ncnc2occ(-c3ccc4c(c3)CCN4C(=O)Cc3cc(F)ccc3F)c12 | 0
Cn1cncc1-c1cc2c(Nc3ccc(OCc4ccccc4)cc3)ncnc2cn1 | 0
Fc1ccc(-c2nc[nH]c2-c2ccncc2)cc1 | 0
CCn1c(-c2c(N)noc2C)nc2cnccc21 | 0
CSc1ccc(-c2nc3n(c2-c2ccncc2)CCC3)cc1 | 0
COc1ccc(Nc2nccc(N3CCC(NC(=O)C(C)c4ccc(Cl)cc4)C3)n2)cc1 (stereo not drawn) | 12
COc1ccc(CSc2nnc(-c3ccc4nccn4c3)o2)cc1C(F)(F)F | 0
Cc1ccc(NC(=O)Nc2ccc(Cl)c(C(F)(F)F)c2)cc1-c1ccc(C(=O)Nc2ccncc2)cc1 | 8

The compound CS(=O)(=O)CCNCc1nc(-c2ccc3ncnc(Nc4ccc5c(cnn5Cc5ccccc5)c4)c3c2)cs1.Cl.Cl showed %Inh equal to 0

The compound CCc1ccc(-c2ccc3c(c2)-c2n[nH]cc2S(=O)(=O)N3C)cc1 showed %Inh equal to 0

The compound Cc1ccc(NC(=O)Nc2ccccc2)cc1-c1ccc(C(=O)Nc2ccncc2)cc1 showed %Inh equal to 45

The compound CS(=O)(=O)CCNCc1nc(-c2ccc3ncnc(Nc4ccc(OCc5ccccc5)c(Cl)c4)c3c2)cs1.Cl showed %Inh equal to 0

The compound c1ccc(-c2ccnc3[nH]ccc23)cc1 showed %Inh equal to 0

The compound O=C(Nc1n[nH]c2nc(-c3ccco3)c(Br)cc12)C1CCN(Cc2ccccc2)C1.O=C(O)[C@H](O)[C@@H](O)C(=O)O (stereo not drawn) showed %Inh equal to 0

The compound CNc1nc(-c2ccc3c(N)n[nH]c3c2)cc(N2C[C@@H](C(=O)NC3CCCCC3)OC[C@H]2C)n1 showed %Inh equal to 0

The compound CCn1c(-c2ccccc2)nc2cnccc21 showed %Inh equal to 10

The compound NS(=O)(=O)c1cccc(N/C=C2\C(=O)Nc3ccc(S(=O)(=O)Cc4c(Cl)cccc4Cl)cc32)c1 showed %Inh equal to 0

The compound CNC(=O)c1ccc(C)c(-n2c(C)cc(OCc3ccc(F)cc3F)c(Br)c2=O)c1 showed %Inh equal to 0

The compound COc1ccc2cc(-c3nc(-c4ccccc4C(C)C)[nH]c3-c3ccncc3)ccc2c1 showed %Inh equal to 0

The values you see were collected from paper PMC5540273.
